B1: FAM50A (parent)
chain: HIFPASRWEPYDPEKKWDKYTIR

variants of: B1; assay: protein stability index of a GFP-peptide fusion (GPS, HEK-293T) (PSI 1-6); higher = more stable; conditions: c terminus: native;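 further: lentivirally expressed fusions sorted by FACS into six bins by GFP to DsRed ratio, PSI derived from sequencing read proportions per bin multiplied by bin number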
I'd appreciate it if you could supply protein stability index values for the items below.
Answer with a bare number; do not write a unit.

Endpoint output: protein stability index of E14T . Value?
1.96

Endpoint output: protein stability index of K16V . Value?
1.97

Endpoint output: protein stability index of P10N . Value?
2.02

Endpoint output: protein stability index of E14C . Value?
2

Endpoint output: protein stability index of I22M . Value?
2.05
